# procedure.text: degradation on incubation with hog liver carboxylate esterase
# Type: in vitro ADME
# experimental.parameters: pig, liver carboxylate esterase; 65 micrograms per milliliter, 37° C., pH 7.4, 8 milligrams protein per milliliter
property.measured: half-life

Report half-life, nothing else, for this molecule: CC(=O)OCOP(=O)(OCOC(C)=O)Oc1ccccc1 [Example 2, bis(acetoxymethyl) phenyl phosphate] < 15 min

---

# procedure.text: physchem
# Type: physicochemical
# experimental.parameters: ethanol, water or 0.05M potassium phosphate buffer (pH 7.4); read-out: half-life in protonic solvents
property.measured: half-life

Report half-life, nothing else, for this molecule: CC(=O)OCOP(=O)(OCOC(C)=O)Oc1ccccc1 [Example 2, bis(acetoxymethyl) phenyl phosphate] > 240 min
